- Tested on: CCRIS mutagenicity, Ames/micronucleus/aberration tests
- assay info: CCRIS mutagenicity studies
- recorded conditions: Test System: AMES SALMONELLA TYPHIMURIUM; Strain/Indicator: TA98; Metabolic Activation: HAMSTER, LIVER, S-9, AROCLOR 1254 (10 OR 30%); Method: PREINCUBATION
Calls of active or inactive are those of the source. How the calls were made is not given here.
Classes to choose from: active, inactive

>>> assigned_category("CCC(=O)O")
"inactive"
>>> assigned_category("CCOc1ccccc1N")
"inactive"
>>> assigned_category("CC(=O)c1ccncc1")
"inactive"
>>> assigned_category("Cl[C@@H]1C2(Cl)C3C4[C@@H]5O[C@@H]5[C@H]5C3[C@@](Cl)(C2(Cl)Cl)[C@]1(Cl)[C@@H]45 (some centres undefined)")
"inactive"
>>> assigned_category("ClC1=C(Cl)[C@]2(Cl)[C@H]3[C@H]([C@@H]4C=C[C@H]3C4)[C@@]1(Cl)C2(Cl)Cl")
"inactive"

Lab log entry: `CN(Cc1cnc2nc(N)nc(N)c2n1)c1c(Cl)cc(C(=O)N[C@@H](CCC(=O)O)C(=O)O)cc1Cl` — outcome as called in the assay?
inactive

Lab log entry: `Cc1ccccc1C(N)=O` — outcome as called in the assay?
inactive

Lab log entry: `CC(C)(C)OOC(C)(C)CCC(C)(C)OOC(C)(C)C` — outcome as called in the assay?
inactive

Lab log entry: `Nc1cc([N+](=O)[O-])cc(S(=O)(=O)O)c1O` — outcome as called in the assay?
inactive

Lab log entry: `O=C(NO)c1ccccc1` — outcome as called in the assay?
active

Value source: PubChem BioAssay AID1259407
